# SYSTEM NAME: Scavenger receptor class B member 1 (Mus musculus)
# Sequence (Q61009 whole entry, canonical isoform): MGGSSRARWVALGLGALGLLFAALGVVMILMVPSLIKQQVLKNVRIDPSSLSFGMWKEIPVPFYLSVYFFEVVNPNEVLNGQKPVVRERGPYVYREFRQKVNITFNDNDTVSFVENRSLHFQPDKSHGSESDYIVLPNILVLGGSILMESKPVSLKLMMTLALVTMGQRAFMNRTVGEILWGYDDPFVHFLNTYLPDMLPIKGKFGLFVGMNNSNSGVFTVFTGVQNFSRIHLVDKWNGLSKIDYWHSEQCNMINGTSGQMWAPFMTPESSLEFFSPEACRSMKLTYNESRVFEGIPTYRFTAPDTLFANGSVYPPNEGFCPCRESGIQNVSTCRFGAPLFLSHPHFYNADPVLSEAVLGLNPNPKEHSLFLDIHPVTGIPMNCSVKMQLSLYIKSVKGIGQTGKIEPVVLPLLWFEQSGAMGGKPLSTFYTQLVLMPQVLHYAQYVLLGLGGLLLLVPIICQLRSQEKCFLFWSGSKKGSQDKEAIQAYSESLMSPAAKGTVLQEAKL
# RUN DESCRIPTION: Inhibition of mouse SR-BI isoform 1 expressed in CHO cells assessed as reduction in transfer of fluorescent lipid DiI from human HDL particles into cells by fluorescence assay
pIC50: −log10 of the molar value.
Label Met when pIC50 is at or above 5; anything below gets Not met.

> print(dat)
                                   compound                               system.name  qualitative.label
1  COc1ccc(-c2nnn(CC(=O)N(C3CCCCC3)C(C)C(=O)NC(C)C)n2)cc1OC (centres undefined)  Scavenger receptor class B member 1 (Mus musculus)                Met
2  Cc1ccc(-c2nnn(CC(=O)N(C3CCCCC3)C(C)C(=O)NC3CCCC3)n2)cc1 (centres undefined)  Scavenger receptor class B member 1 (Mus musculus)                Met
3  COc1ccc(-c2nnn(CC(=O)N(C3CCCCC3)C(C)C(=O)NC(C)(C)C)n2)cc1OC (centres undefined)  Scavenger receptor class B member 1 (Mus musculus)            Not met
4  COc1ccc(-c2nnn(CC(=O)N(CC3CCCCC3)C(C)C(=O)NC3CCCC3)n2)cc1OC (centres undefined)  Scavenger receptor class B member 1 (Mus musculus)                Met
5  COc1ccc(-c2nnn(CC(=O)N(C3CCCCC3)C(C)C(=O)N3CCCCC3)n2)cc1OC (centres undefined)  Scavenger receptor class B member 1 (Mus musculus)                Met
6  C[C@H](C(=O)NC1CCCC1)N(C(=O)Cn1nnc(-c2ccc3c(c2)OCO3)n1)C1CCCCC1  Scavenger receptor class B member 1 (Mus musculus)                Met
7  COc1ccc(-c2nnn(CC(=O)N(C3CCCCC3)C(C)C(=O)NC3CCCCC3)n2)cc1OC (centres undefined)  Scavenger receptor class B member 1 (Mus musculus)                Met
8  CC(C(=O)NC1CCCC1)N(C(=O)Cc1ccccc1)C1CCCCC1 (centres undefined)  Scavenger receptor class B member 1 (Mus musculus)            Not met

---

# RUN DESCRIPTION: Stability in mouse liver microsomes assessed as compound remaining at 1 uM in presence of NADPH at 37 degC after 1 hr by UHPLC-MS method
# Type: ADME
# TEST PARAMETERS: read-out: Stability
RECORDED ENDPOINT: remaining at 1 h, 1 µM

> print(dat)
                            compound.string  reported.result
1  C[C@H](C(=O)NC1CCCC1)N(C(=O)Cn1nnc(-c2ccc3c(c2)OCO3)n1)C1CCCCC1             < 1%

---

# RUN DESCRIPTION: Aqueous solubility in PBS buffer with 1% DMSO at 100 uM incubated for 24 hrs by UPLC-MS method
# Format: physicochemical
In this section we review reported solubility kinetic at 24 h, 100 µM values for a set of compounds.
RECORDED ENDPOINT: solubility kinetic at 24 h, 100 µM (µM)

> print(dat)
                                   compound  reported.result
1  C[C@H](C(=O)NC1CCCC1)N(C(=O)Cn1nnc(-c2ccc3c(c2)OCO3)n1)C1CCCCC1               28
2  COCC(=O)N1CCc2cc(-c3csc(NC(=O)c4cc(OC)cc(OC)c4)n3)ccc21             0.57
3  COc1ccc(-c2nnn(CC(=O)N(C3CCCCC3)C(C)C(=O)NC3CCCC3)n2)cc1OC (stereo not drawn)              114
